System: human colorectal cancer cell line HT29
assayNotes: In vitro anti-cancer cell experiment (MTT), colorectal cancer HT29
Assay type: cell-based
testContext: HT-29, HT29 cells, 48 hours, MTT, value (95% confidence limits), read-out: IC50 and 95% confidence limit, anti-proliferative effect on HT29
reportedEndpoint: log10 IC50 (log10 of the value in µg/mL)

CC(N)C12CC3CC(CC(C3)C1)C2 (centres unmarked)
0.59
COc1ccc(-c2ccc3cc(C(=O)O)ccc3c2)cc1C12CC3CC(CC(C3)C1)C2
-0.07
NC12CC3CC(CC(C3)C1)C2
1.27
CC12CC3CC(C)(C1)CC(N)(C3)C2 [Compound 3, Memantine]
1.12
CN(C)CCOCC(=O)NC12CC3CC(CC(C3)C1)C2
1.01

---

assayNotes: Body weight of S180 tumor-bearing mice
testContext: mouse, in vivo, iv
Classification field: enter label 1 for body Weight/g Before ad. values not below 20 g, label 0 for values below it.

CC(N)C12CC3CC(CC(C3)C1)C2 (stereo not shown) [Compound 2, Rimantadine]
label 0
CN(C)CCOCC(=O)NC12CC3CC(CC(C3)C1)C2 [Compound 4, Tromantadine]
label 1
O=c1[nH]cc(F)c(=O)[nH]1 [Compound 5-FU, 5-fluorouracil]
label 1
CC12CC3CC(C)(C1)CC(N)(C3)C2 [Compound 3, Memantine]
label 1
NC12CC3CC(CC(C3)C1)C2 [Compound 1, Amantadine]
label 1

---

Below, each of the compounds is paired with its reported log10(IC50) value.
Tested on: Human pancreatic cancer cell line Panc-1
assayNotes: In vitro anti-cancer cell experiment (MTT), pancreatic cancer Panc-1
Assay type: cell-based
testContext: Panc-1 cells, 48 hours, MTT, read-out: IC50 Pancreatic cancer Panc-1
Procedure: Cell lines: Human pancreatic cancer cell line Panc-1, human colorectal cancer cell line HT29, human lung cancer cell line NCI-H460 and human breast cancer cell line MCF7; the medium: s DMEM (Gibco BRL), containing 10% fetal calf serum (Gibco BRL) and 2 mM L-glutamine (Gibco BRL). The samples were dissolved in dimethyl sulfoxide (DMSO, Sigma, United States) and medium was added to the final concentration of 0.5%. cyclophosphamide was as positive control (CTX, purity>96%). […]
reportedEndpoint: log10(IC50) (log10 of the value in µM)

COc1ccc(-c2ccc3cc(C(=O)O)ccc3c2)cc1C12CC3CC(CC(C3)C1)C2
0.34
CN(C)CCOCC(=O)NC12CC3CC(CC(C3)C1)C2
1.00
CC(N)C12CC3CC(CC(C3)C1)C2 (stereo not drawn)
0.38
CC12CC3CC(C)(C1)CC(N)(C3)C2 [Compound 3, Memantine]
1.72
NC12CC3CC(CC(C3)C1)C2
1.71
O=C1C2CC3CC1CC(O)(C3)C2
1.73

---

assayNotes: Body weight of S180 tumor-bearing mice
testContext: mouse, in vivo, iv
Below, each of the compounds is paired with its reported body Weight/g After ad. value.
reportedEndpoint: body Weight/g After ad. (g)

COc1ccc(-c2ccc3cc(C(=O)O)ccc3c2)cc1C12CC3CC(CC(C3)C1)C2
20.80
CC(N)C12CC3CC(CC(C3)C1)C2 (stereo not shown)
26.02
CC12CC3CC(C)(C1)CC(N)(C3)C2 [Compound 3, Memantine]
28.98
O=c1[nH]cc(F)c(=O)[nH]1
29.16
O=C1C2CC3CC1CC(O)(C3)C2
26.30
CN(C)CCOCC(=O)NC12CC3CC(CC(C3)C1)C2
28.64
NC12CC3CC(CC(C3)C1)C2
27.93
